The values you see were collected from ChEMBL document CHEMBL5584295.

Test: Induction of osteogenesis in Wistar rat bone marrow-derived MSC assessed as increase in bone formation by measuring fold change at 0.4 uM measured after 14 days with fresh culture medium replacement for every 3 days by Alizarin red staining based analysis
Type: functional
Conditions: time 14 day
Output True for records whose fold change (FC) is lower than 1, False for records at or above 1.

Answered examples (4):
Report whether reported fold change (FC) is lower than 1 (strictly) for "CCCCN1COc2ccc3c(=O)c(-c4ccc(OC)cc4)coc3c2C1"
False

Identify whether the compound "COc1ccc(-c2coc3c4c(ccc3c2=O)OCN(Cc2ccoc2)C4)cc1" records fold change (FC) below 1.
False

# TODO verify fold change (FC) < 1 strictly for this compound: "CCCCCCN1COc2ccc3c(=O)c(-c4ccc(OC)cc4)coc3c2C1"
False

Dear reviewer, please state whether "COc1ccc(-c2coc3c(C=O)c(O)ccc3c2=O)cc1" has fold change (FC) strictly beneath 1.
False

More entries:
Is the reported fold change (FC) for "COc1ccc(-c2coc3c4c(ccc3c2=O)OCN(C2CCCCC2)C4)cc1" strictly below 1?
True

Quick check: does "CCCCCCCCNCc1c(O)ccc2c(=O)c(-c3ccc(OC)cc3)coc12" have fold change (FC) under 1?
False
